Tested on: 242566-281-R-J2-PDC complex spheroid viability;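 note: spheroids exposed to compounds for 7 days before readout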
EXPERIMENT_SUMMARY: Anticancer human tumor 242566-281-R-J2-PDC patient-derived pancreatic carcinoma cell line growth inhibition [CLK]; active = viability on the fitted dose curve at most 10% of control; inactive = the rest
CONDITION_NOTES: second compound 0.1 µM; first compound 0.316 µM
# output must be one of active, inactive

[
  {
    "COMPOUND": "C=C(F)C(=O)N1CCN(c2nc(OCC3CCCN3C)nc3c2CCN(c2cccc4cccc(Cl)c24)C3)CC1CC#N (stereo not given) + CNC(=O)c1ccc(Nc2nc(OC3CCCC3)c3c(-c4ccc5nc(C)oc5c4)c[nH]c3n2)c(OC)c1",
    "CLASS": "inactive"
  },
  {
    "COMPOUND": "O=c1[nH]cc(F)c(=O)[nH]1 + CNC(=O)c1ccc(Nc2nc(OC3CCCC3)c3c(-c4ccc5nc(C)oc5c4)c[nH]c3n2)c(OC)c1",
    "CLASS": "inactive"
  },
  {
    "COMPOUND": "CCN1CCN(Cc2ccc(Nc3ncc(F)c(-c4cc(F)c5nc(C)n(C(C)C)c5c4)n3)nc2)CC1 + CN1CCN(c2cc(C(=O)Nc3cc4cc(-c5cnn(C)c5)ccc4cn3)ccn2)CC1",
    "CLASS": "inactive"
  },
  {
    "COMPOUND": "CC(=O)O[C@H]1C(=O)[C@@]2(C)[C@H]([C@H](OC(=O)c3ccccc3)[C@]3(O)C[C@H](OC(=O)[C@H](O)[C@@H](NC(=O)c4ccccc4)c4ccccc4)C(C)=C1C3(C)C)[C@]1(OC(C)=O)CO[C@@H]1C[C@@H]2O + CNC(=O)c1ccc(Nc2nc(OC3CCCC3)c3c(-c4ccc5nc(C)oc5c4)c[nH]c3n2)c(OC)c1",
    "CLASS": "inactive"
  },
  {
    "COMPOUND": "CC(Nc1ccc2c(c1)OCCn1cc(N3C(=O)OCC3C(F)F)nc1-2)C(N)=O (stereo not given) + CNC(=O)c1ccc(Nc2nc(OC3CCCC3)c3c(-c4ccc5nc(C)oc5c4)c[nH]c3n2)c(OC)c1",
    "CLASS": "inactive"
  }
]

Exercise: What was the test verdict on Nc1ccccc1NC(=O)c1ccc(CNC(=O)OCc2cccnc2)cc1 + CNC(=O)c1ccc(Nc2nc(OC3CCCC3)c3c(-c4ccc5nc(C)oc5c4)c[nH]c3n2)c(OC)c1 ?
Key: inactive

Exercise: Could you do the same for COC1C=CCC(C)C(C)S(=O)(=O)NC(=O)c2ccc3c(c2)N(CC2CCC21)CC1(CCCc2cc(Cl)ccc21)CO3 (stereo not given) + CN1CCN(c2cc(C(=O)Nc3cc4cc(-c5cnn(C)c5)ccc4cn3)ccn2)CC1 , please?
Key: inactive

Exercise: Also O=C(c1cc(Cc2n[nH]c(=O)c3ccccc23)ccc1F)N1CCN(C(=O)C2CC2)CC1 + CN1CCN(c2cc(C(=O)Nc3cc4cc(-c5cnn(C)c5)ccc4cn3)ccn2)CC1 ?
Key: inactive

Exercise: Can you check CC1(C)CCC(CN2CCN(c3ccc(C(=O)NS(=O)(=O)c4ccc(NCC5CCOCC5)c([N+](=O)[O-])c4)c(Oc4cnc5[nH]ccc5c4)c3)CC2)=C(c2ccc(Cl)cc2)C1 + CNC(=O)c1ccc(Nc2nc(OC3CCCC3)c3c(-c4ccc5nc(C)oc5c4)c[nH]c3n2)c(OC)c1 next?
Key: inactive

Exercise: Similarly, COc1c(OCCCN2CCOCC2)ccc2c3n(c(=NC(=O)c4cnc(N)nc4)nc12)CCN3 + CN1CCN(c2cc(C(=O)Nc3cc4cc(-c5cnn(C)c5)ccc4cn3)ccn2)CC1 ?
Key: active
